Tested on: ATP;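 also: ATP exposure 15 min at 22 °C before imaging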
TEST_PROTOCOL: switch fluorescence ratio, 500 uM ATP over buffer (Cy3 cluster intensity, sum of 5 cycles each) (fold (ratio)); higher = stronger signal-on switching upon ATP binding; sequences stand for … in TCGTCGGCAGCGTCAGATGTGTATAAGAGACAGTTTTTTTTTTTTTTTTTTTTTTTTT…TC
CONDITION_SUMMARY: aptamer strand: ATP DNA aptamer (quencher-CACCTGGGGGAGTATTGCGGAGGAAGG + anchor), 100 nM annealed; ATP concentration: 500 uM

[
  {
    "CHAIN": "ACACACGACG",
    "switch fluorescence ratio": 1.29
  },
  {
    "CHAIN": "GAGGCTGGGA",
    "switch fluorescence ratio": 0.988
  },
  {
    "CHAIN": "ATATTAGGTC",
    "switch fluorescence ratio": 1.01
  },
  {
    "CHAIN": "TAGAGGGCCA",
    "switch fluorescence ratio": 1.01
  },
  {
    "CHAIN": "GATGGGGAGT",
    "switch fluorescence ratio": 0.972
  },
  {
    "CHAIN": "TGAGGAAAGG",
    "switch fluorescence ratio": 1.17
  },
  {
    "CHAIN": "ACGAGTCTGC",
    "switch fluorescence ratio": 0.966
  },
  {
    "CHAIN": "GTGGGGCGGT",
    "switch fluorescence ratio": 0.983
  },
  {
    "CHAIN": "GTAGGGGAAG",
    "switch fluorescence ratio": 1.01
  },
  {
    "CHAIN": "AATTGTGAGG",
    "switch fluorescence ratio": 1.01
  },
  {
    "CHAIN": "CAGCAGGGAG",
    "switch fluorescence ratio": 1.1
  },
  {
    "CHAIN": "GTTGGAATTG",
    "switch fluorescence ratio": 0.992
  },
  {
    "CHAIN": "GACGACTTGA",
    "switch fluorescence ratio": 1.02
  },
  {
    "CHAIN": "CTTTATGGTT",
    "switch fluorescence ratio": 0.99
  },
  {
    "CHAIN": "AAAAATTAAA",
    "switch fluorescence ratio": 1
  },
  {
    "CHAIN": "GCGTCCAGTT",
    "switch fluorescence ratio": 1.09
  },
  {
    "CHAIN": "ATGTTTTCTT",
    "switch fluorescence ratio": 0.998
  },
  {
    "CHAIN": "TGCATTTTTG",
    "switch fluorescence ratio": 1.06
  },
  {
    "CHAIN": "TCACTCATTG",
    "switch fluorescence ratio": 0.998
  },
  {
    "CHAIN": "TAATTTTTGC",
    "switch fluorescence ratio": 1.02
  },
  {
    "CHAIN": "TGATTGTTAT",
    "switch fluorescence ratio": 1.03
  },
  {
    "CHAIN": "TTTCTTATGT",
    "switch fluorescence ratio": 1.03
  },
  {
    "CHAIN": "TTTCAATGGT",
    "switch fluorescence ratio": 1
  },
  {
    "CHAIN": "GCCGGGACCG",
    "switch fluorescence ratio": 1.02
  },
  {
    "CHAIN": "TGGTTTTTGG",
    "switch fluorescence ratio": 0.989
  },
  {
    "CHAIN": "AGTTTATAAT",
    "switch fluorescence ratio": 0.982
  },
  {
    "CHAIN": "CGCTATTTCT",
    "switch fluorescence ratio": 1.1
  },
  {
    "CHAIN": "TTATTCGTGT",
    "switch fluorescence ratio": 1.01
  },
  {
    "CHAIN": "CAGGGCTATT",
    "switch fluorescence ratio": 1.01
  },
  {
    "CHAIN": "TCGGAGTGCT",
    "switch fluorescence ratio": 1.04
  },
  {
    "CHAIN": "GTGTATTATT",
    "switch fluorescence ratio": 0.976
  }
]

---

Tested on: ATP;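 also: ATP exposure 15 min at 22 °C before imaging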
TEST_PROTOCOL: switch fluorescence ratio, 500 uM ATP over buffer (Cy3 cluster intensity, sum of 5 cycles each) (fold (ratio)); higher = stronger signal-on switching upon ATP binding; sequences stand for … in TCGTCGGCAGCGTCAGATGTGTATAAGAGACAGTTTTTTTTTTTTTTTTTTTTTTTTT…TC
CONDITION_SUMMARY: aptamer strand: ATP DNA aptamer (quencher-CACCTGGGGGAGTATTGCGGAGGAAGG + anchor), 100 nM annealed; ATP concentration: 500 uM
# label = Fulfilled if switch fluorescence ratio >= 1 else Not fulfilled

[
  {
    "CHAIN": "TTTCTGTATC",
    "LABEL_VALUE": "Fulfilled"
  },
  {
    "CHAIN": "ATTTGTCTGG",
    "LABEL_VALUE": "Not fulfilled"
  }
]

---

Tested on: ATP;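 also: ATP exposure 15 min at 22 °C before imaging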
TEST_PROTOCOL: switch fluorescence ratio, 500 uM ATP over buffer (Cy3 cluster intensity, sum of 5 cycles each) (fold (ratio)); higher = stronger signal-on switching upon ATP binding; sequences stand for … in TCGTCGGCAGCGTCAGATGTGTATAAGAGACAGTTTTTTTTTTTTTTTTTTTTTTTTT…TC
CONDITION_SUMMARY: aptamer strand: ATP DNA aptamer (quencher-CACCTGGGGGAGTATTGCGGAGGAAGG + anchor), 100 nM annealed; ATP concentration: 500 uM
Measured switch fluorescence ratio accompanies every entry in the list below.

[
  {
    "CHAIN": "AGGGGTTGAG",
    "switch fluorescence ratio": 0.998
  },
  {
    "CHAIN": "GTACAGGTTT",
    "switch fluorescence ratio": 1.02
  },
  {
    "CHAIN": "AAGAAGGACG",
    "switch fluorescence ratio": 1
  },
  {
    "CHAIN": "GGGGATAGTG",
    "switch fluorescence ratio": 0.997
  },
  {
    "CHAIN": "ATAATAGGGC",
    "switch fluorescence ratio": 1
  },
  {
    "CHAIN": "GGGGGGGACA",
    "switch fluorescence ratio": 0.984
  },
  {
    "CHAIN": "TTTATCAGCT",
    "switch fluorescence ratio": 0.998
  },
  {
    "CHAIN": "TAGGGTGAGT",
    "switch fluorescence ratio": 1.02
  }
]

---

Each entry below carries its recorded switch fluorescence ratio.
Test system: ATP;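 also: ATP exposure 15 min at 22 °C before imaging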
TEST_PROTOCOL: switch fluorescence ratio, 500 uM ATP over buffer (Cy3 cluster intensity, sum of 5 cycles each) (fold (ratio)); higher = stronger signal-on switching upon ATP binding; sequences stand for … in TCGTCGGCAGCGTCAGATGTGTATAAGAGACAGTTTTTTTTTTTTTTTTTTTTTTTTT…TC
CONDITION_SUMMARY: aptamer strand: ATP DNA aptamer (quencher-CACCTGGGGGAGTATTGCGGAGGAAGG + anchor), 100 nM annealed; ATP concentration: 500 uM

[
  {
    "CHAIN": "TTATGCGGAT",
    "switch fluorescence ratio": 1.02
  },
  {
    "CHAIN": "TTTTAGTGAC",
    "switch fluorescence ratio": 1.02
  },
  {
    "CHAIN": "GGTGGCTGAA",
    "switch fluorescence ratio": 0.99
  },
  {
    "CHAIN": "AGATGTGCCT",
    "switch fluorescence ratio": 1.01
  },
  {
    "CHAIN": "GGGGGCCTGG",
    "switch fluorescence ratio": 0.979
  },
  {
    "CHAIN": "ACATAGATTT",
    "switch fluorescence ratio": 1.03
  },
  {
    "CHAIN": "CCATGGTTTT",
    "switch fluorescence ratio": 1
  },
  {
    "CHAIN": "GAGCTTCTAG",
    "switch fluorescence ratio": 1.03
  },
  {
    "CHAIN": "GGGATTTTTA",
    "switch fluorescence ratio": 0.987
  }
]

---

Measured switch fluorescence ratio, listed per entry.
Test system: ATP;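 also: ATP exposure 15 min at 22 °C before imaging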
TEST_PROTOCOL: switch fluorescence ratio, 500 uM ATP over buffer (Cy3 cluster intensity, sum of 5 cycles each) (fold (ratio)); higher = stronger signal-on switching upon ATP binding; sequences stand for … in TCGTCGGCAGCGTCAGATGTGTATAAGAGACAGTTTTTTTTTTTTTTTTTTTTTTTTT…TC
CONDITION_SUMMARY: aptamer strand: ATP DNA aptamer (quencher-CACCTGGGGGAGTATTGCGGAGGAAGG + anchor), 100 nM annealed; ATP concentration: 500 uM

[
  {
    "CHAIN": "GGATATACGT",
    "MEASUREMENT_TARGET": "ATP",
    "switch fluorescence ratio": 1.01
  },
  {
    "CHAIN": "AGGTCAAGAA",
    "MEASUREMENT_TARGET": "ATP",
    "switch fluorescence ratio": 1.07
  },
  {
    "CHAIN": "GGCGCATGGA",
    "MEASUREMENT_TARGET": "ATP",
    "switch fluorescence ratio": 0.991
  },
  {
    "CHAIN": "TGTAAGGGCG",
    "MEASUREMENT_TARGET": "ATP",
    "switch fluorescence ratio": 1.02
  },
  {
    "CHAIN": "GGCCTTTTAA",
    "MEASUREMENT_TARGET": "ATP",
    "switch fluorescence ratio": 1.04
  },
  {
    "CHAIN": "ATCTATCCTT",
    "MEASUREMENT_TARGET": "ATP",
    "switch fluorescence ratio": 1.01
  },
  {
    "CHAIN": "GGTAATGTTT",
    "MEASUREMENT_TARGET": "ATP",
    "switch fluorescence ratio": 1.01
  },
  {
    "CHAIN": "ACTATGGGGG",
    "MEASUREMENT_TARGET": "ATP",
    "switch fluorescence ratio": 0.995
  }
]
